Data provenance: patent US12673930B2

- ASSAYED_TARGET: HSD17B13 enzyme (Homo sapiens)
- Construct: His; made in house; host or cells: E. coli
- Sequence (Q7Z5P4 20-300): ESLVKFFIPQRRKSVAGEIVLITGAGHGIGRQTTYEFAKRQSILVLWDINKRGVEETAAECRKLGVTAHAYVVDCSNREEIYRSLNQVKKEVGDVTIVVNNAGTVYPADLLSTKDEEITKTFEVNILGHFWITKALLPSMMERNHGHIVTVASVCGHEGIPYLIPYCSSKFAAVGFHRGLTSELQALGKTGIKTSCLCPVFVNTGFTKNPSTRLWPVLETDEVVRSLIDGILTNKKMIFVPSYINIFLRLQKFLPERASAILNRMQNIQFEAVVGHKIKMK
- PROTOCOL_DESCRIPTION: LC/MS estrone detection assay (conversion of estradiol to estrone by HSD17B13)
- Type: biochemical
- CONDITION_CONTEXT: substrate 4 μM estradiol, 6 mM NAD+, 30 nM HSD17B13 enzyme, 2 hours at 26.5° C
Some compounds, each annotated with its measured IC50.
ASSAY_METRIC: IC50

* COc1ccccc1CCNC(=O)c1sccc1NC(=O)c1ccc(S(=O)(=O)NC(=O)c2ccccc2)c(Cl)c1 | 1 to 10 µM
* COc1ccccc1CCNC(=O)c1sccc1NC(=O)c1ccc(O)c(Cl)c1 | ≤ 0.1 µM
* COc1ccccc1CCNC(=O)c1sccc1NC(=O)c1ccc2[nH]nc(Cl)c2c1 | > 10 µM
* CC(C)CNC(=O)c1sccc1NC(=O)c1ccc(O)c(Cl)c1 | ≤ 0.1 µM
* COc1ccccc1CCNC(=O)c1sccc1NC(=O)c1ccc(O)c(C(F)(F)F)c1 | ≤ 0.1 µM
* COc1ccccc1CCNC(=O)c1c(NC(=O)c2ccc(O)c(Cl)c2)sc2c1CCCC2 | 0.1 to 1 µM
* COc1ccncc1CCNC(=O)c1sccc1NC(=O)c1ccc(O)c(Cl)c1 | 0.1 to 1 µM
* COc1ccccc1CCNC(=O)c1sccc1NC(=O)c1ccc(S(N)(=O)=O)c(Cl)c1 | > 10 µM
* COc1ccccc1CCNC(=O)c1sc2ccccc2c1NC(=O)c1ccc(O)c(Cl)c1 | 0.1 to 1 µM
* O=C(Nc1ccsc1C(=O)NC1COc2ccccc2C1)c1ccc(O)c(Cl)c1 (stereo not shown) | ≤ 0.1 µM

====

- ASSAYED_TARGET: HSD17B13 enzyme (Homo sapiens)
- Construct: His; made in house; host or cells: E. coli
- PROTOCOL_DESCRIPTION: LC/MS estrone detection assay (conversion of estradiol to estrone by HSD17B13)
- Assay type: biochemical
- CONDITION_CONTEXT: substrate 4 μM estradiol, 6 mM NAD+, 30 nM HSD17B13 enzyme, 2 hours at 26.5° C
ASSAY_METRIC: IC50

• COc1ccccc1CCNC(=O)c1sccc1NC(=O)c1ccncc1 [Example 10] = > 10000 nM
• COc1ccccc1CCNC(=O)c1sc2nccnc2c1NC(=O)c1ccc(O)c(Cl)c1 [Example 12] = 100 to 1000 nM
• O=C(Nc1sc(Cl)cc1C(=O)NCCc1ccccc1OC(F)(F)F)c1ccc(O)c(F)c1 [Example 46] = ≤ 100 nM
• COc1ccccc1CCNC(=O)c1ccsc1NC(=O)c1ccc(O)c(Cl)c1 [Example 13] = ≤ 100 nM
• CCNC(=O)c1sccc1NC(=O)c1ccc(O)c(Cl)c1 [Example 5] = 100 to 1000 nM
• COc1ccccc1CCNC(=O)c1sccc1NC(=O)c1ccc(OC(F)(F)C(=O)O)c(Cl)c1 [Example 25] = 1000 to 10000 nM
• O=C(Nc1sc(Cl)cc1C(=O)NCCN1CCOCC1)c1ccc(O)c(F)c1 [Example 41] = 100 to 1000 nM
• CC(C)(C)CCNC(=O)c1sc2cnccc2c1NC(=O)c1ccc(O)c(F)c1 [Example 19] = 100 to 1000 nM
• CN1CCN(CCNC(=O)c2cc(Cl)sc2NC(=O)c2ccc(O)c(F)c2)CC1 [Example 42] = 1000 to 10000 nM
• CC(C)(C)CCNC(=O)c1sccc1NC(=O)c1cc(F)c(O)c(F)c1 [Example 18] = ≤ 100 nM
• O=C(Nc1ccsc1C(=O)NCCc1ccccc1F)c1ccc(O)c(Cl)c1 [Example 9] = ≤ 100 nM
• O=C(Nc1cc(Cl)sc1C(=O)NCCc1ccccc1C(F)(F)F)c1cc(F)c(O)c(F)c1 [Example 44] = ≤ 100 nM
• COc1ccccc1CCNC(=O)c1sccc1NC(=O)c1ccc(O)c(F)c1 [Example 30] = ≤ 100 nM
• CC(C)(C)CCNC(=O)c1sccc1NC(=O)c1cc(F)c(O)c(Cl)c1 [Example 47] = ≤ 100 nM
• COc1ccccc1CCNC(=O)c1sccc1NC(=O)c1ccc(C(F)(F)C(=O)O)c(F)c1 [Example 27] = > 10000 nM
• COc1ccccc1CCNC(=O)c1sc(Cl)cc1NC(=O)c1ccc(O)c(Cl)c1 [Example 17] = ≤ 100 nM
• COc1ccccc1CCNC(=O)c1sccc1NC(=O)Cc1ccc(O)c(Cl)c1 [Example 20] = 100 to 1000 nM
• COc1ccccc1CCNC(=O)c1sccc1NC(=O)c1ccc(N2CCC(C(=O)O)C2)c(Cl)c1 (stereo not drawn) [Example 29] = 1000 to 10000 nM
